Data provenance is patent US7473683B2.

system: self-complementary strands (5′-XCGCGCG); assay: dangling end thermal denaturation studies (base stacking) with self-complementary strands; type: physicochemical; conditions: dangling residue X in 5′-XCGCGCG
Each record here notes measured ΔΔG° stacking per base.

>  <Compound>
Cc1ccc(Cl)cc1Cl [L, 2,4-dichlorotoluene]

>  <ΔΔG° stacking per base (kcal/mol)>
1.10

$$$$
>  <Compound>
Cc1ccc(Br)cc1Br [B, 2,4-dibromotoluene]

>  <ΔΔG° stacking per base (kcal/mol)>
1.50

$$$$
>  <Compound>
Cc1ccc(I)cc1I [I, 2,4-diiodotoluene]

>  <ΔΔG° stacking per base (kcal/mol)>
1.30

$$$$
>  <Compound>
Cc1c[nH]c(=O)[nH]c1=O [T, thymine, reference compound]

>  <ΔΔG° stacking per base (kcal/mol)>
0.65

$$$$

###

Each record here notes measured Vmax.
tested on: DNA Pol I (Klenow fragment, exo-); test: steady-state kinetics of single nucleotide insertions, thymidine analogues in the template; assay type: biochemical, E. coli; conditions: insertion of dCTP opposite template base; 37° C., 10 mM MgCl2, pH 7.5; normalized to lowest enzyme concentration
Endpoint: Vmax (% · m in^−1)

>  <Compound>
Cc1ccc(Br)cc1Br

>  <Tested Target>
DNA Pol I (Klenow fragment, exo-)

>  <Endpoint>
Vmax

>  <Obs Value>
0.038

$$$$
>  <Compound>
Cc1c[nH]c(=O)[nH]c1=O [T, thymine, reference compound]

>  <Tested Target>
DNA Pol I (Klenow fragment, exo-)

>  <Endpoint>
Vmax

>  <Obs Value>
0.022

$$$$
>  <Compound>
Cc1ccc(Cl)cc1Cl

>  <Tested Target>
DNA Pol I (Klenow fragment, exo-)

>  <Endpoint>
Vmax

>  <Obs Value>
0.021

$$$$
>  <Compound>
Cc1ccc(I)cc1I

>  <Tested Target>
DNA Pol I (Klenow fragment, exo-)

>  <Endpoint>
Vmax

>  <Obs Value>
0.036

$$$$

###

Each record here notes measured Vmax.
system: DNA Pol I (Klenow fragment, exo-); experiment: steady-state kinetics of single nucleotide insertions, thymidine analogues in the template; type: biochemical, E. coli; conditions: insertion of dATP opposite template base; 37° C., 10 mM MgCl2, pH 7.5; normalized to lowest enzyme concentration
Endpoint: Vmax

>  <Compound>
Cc1ccc(Br)cc1Br

>  <Endpoint>
Vmax

>  <Obs Value>
12 ± 1 % · m in^−1

$$$$
>  <Compound>
Cc1c[nH]c(=O)[nH]c1=O [T, thymine, reference compound]

>  <Endpoint>
Vmax

>  <Obs Value>
24 ± 1 % · m in^−1

$$$$
>  <Compound>
Cc1ccc(Cl)cc1Cl

>  <Endpoint>
Vmax

>  <Obs Value>
27 ± 5 % · m in^−1

$$$$
>  <Compound>
Cc1ccc(I)cc1I

>  <Endpoint>
Vmax

>  <Obs Value>
1.3 ± 0.2 % · m in^−1

$$$$

###

tested on: DNA Pol I (Klenow fragment, exo-); assay: steady-state kinetics of single nucleotide insertions, incoming nucleotide analogues (dNTP/dXTP); assay type: biochemical, E. coli; details: dNTP inserted opposite template base A; relative to insertion of dTTP opposite A
Endpoint: rel. efficiency

>  <Compound>
Cc1cc(C2CC(O)C(COP(=O)(O)OP(=O)(O)OP(=O)(O)O)O2)c(Br)cc1Br (stereo not drawn)

>  <Obs Value>
3.6 × 10^−2

$$$$
>  <Compound>
Cc1cc(C2CC(O)C(COP(=O)(O)OP(=O)(O)OP(=O)(O)O)O2)c(Cl)cc1Cl (stereo not drawn)

>  <Obs Value>
1.4 × 10^−1

$$$$
>  <Compound>
Cc1cc(C2CC(O)C(COP(=O)(O)OP(=O)(O)OP(=O)(O)O)O2)c(F)cc1F (stereo not drawn) [dFTP, reference compound]

>  <Obs Value>
6.3 × 10^−3

$$$$
>  <Compound>
Cc1cn([C@H]2C[C@H](O)[C@@H](COP(=O)(O)OP(=O)(O)OP(=O)(O)O)O2)c(=O)[nH]c1=O [dTTP, reference compound]

>  <Obs Value>
1

$$$$
>  <Compound>
Cc1cccc(C2CC(O)C(COP(=O)(O)OP(=O)(O)OP(=O)(O)O)O2)c1 (stereo not drawn)

>  <Obs Value>
6.3 × 10^−5

$$$$
>  <Compound>
Cc1cc(C2CC(O)C(COP(=O)(O)OP(=O)(O)OP(=O)(O)O)O2)c(I)cc1I (stereo not drawn)

>  <Obs Value>
6.3 × 10^−3

$$$$
